Exercise: for every item that follows, state its recorded IC50.
# system.tested: Leucine aminopeptidase (Plasmodium falciparum (isolate 3D7)) (UniProt Q8IL11)
# Sequence (Q8IL11 whole entry, looked up): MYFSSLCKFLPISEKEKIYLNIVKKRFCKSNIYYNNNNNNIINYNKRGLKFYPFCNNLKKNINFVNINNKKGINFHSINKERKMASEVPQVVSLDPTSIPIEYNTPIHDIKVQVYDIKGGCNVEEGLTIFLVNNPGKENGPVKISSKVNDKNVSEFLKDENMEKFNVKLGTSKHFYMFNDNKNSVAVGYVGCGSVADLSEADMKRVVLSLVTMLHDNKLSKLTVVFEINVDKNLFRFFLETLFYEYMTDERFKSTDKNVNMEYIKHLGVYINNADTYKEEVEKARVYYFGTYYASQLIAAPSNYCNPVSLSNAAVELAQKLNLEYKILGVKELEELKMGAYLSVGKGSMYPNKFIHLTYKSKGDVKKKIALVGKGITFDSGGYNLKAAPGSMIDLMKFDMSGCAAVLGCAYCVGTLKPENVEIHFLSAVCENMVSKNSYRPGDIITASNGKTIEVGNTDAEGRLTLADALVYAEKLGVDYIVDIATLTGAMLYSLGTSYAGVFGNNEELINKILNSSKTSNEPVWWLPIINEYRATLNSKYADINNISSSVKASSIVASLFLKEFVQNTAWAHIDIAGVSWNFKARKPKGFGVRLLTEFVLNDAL
# experiment.summary: inhibition of P. falciparum M17 leucine aminopeptidase – biochemical, QFRET, H-Leu-NHMec substrate, set 3, selectivity assay for PFM1AAP inhibitor project, dose response (AID 624164)
# condition.set: purified rPFM17LAP, H-Leu-NHMec fluorogenic cleavage

Example entries begin here.
given.smiles | reported.metric | result
O=C(NCc1ccc2c(c1)OCO2)C1CCN(S(=O)(=O)c2ccc(Cl)s2)CC1 | IC50 | 35.4 µM
O=C(NCc1ccccc1F)C1CCN(S(=O)(=O)c2ccc(Br)cc2)CC1 | IC50 | 82.3 µM
O=C(NCc1ccc2c(c1)OCO2)C1CCN(S(=O)(=O)c2ccc(Br)s2)CC1 | IC50 | 16.4 µM
O=C(NCc1cccc(F)c1)C1CCN(S(=O)(=O)c2ccc(Cl)s2)CC1 | IC50 | 50 µM
O=C(NCc1ccccc1F)C1CCN(S(=O)(=O)c2ccc(Cl)s2)CC1 | IC50 | 50 µM

For each entry beneath this line, provide reported IC50.
1. O=C(NCc1ccc(F)cc1)C1CCN(S(=O)(=O)c2ccc(Br)s2)CC1
2. O=C(NCc1cccc(F)c1)C1CCN(S(=O)(=O)c2ccc(Br)cc2)CC1
3. O=C(NCc1cccc(F)c1)C1CCN(S(=O)(=O)c2ccc(Br)s2)CC1
4. O=C(NCc1ccc(F)cc1)C1CCN(S(=O)(=O)c2ccc(Cl)s2)CC1
5. O=C(NCc1ccccc1F)C1CCN(S(=O)(=O)c2ccc(Br)s2)CC1

Result block:
1. 44.3 µM
2. 50.6 µM
3. 24.7 µM
4. 43.6 µM
5. 28.5 µM
